System: PANC 05.04
Experimental Details: In vitro cytotoxicity on pancreatic cancer cell line (Example 12)
Assay type: cell-based
Study Conditions: PANC 05.04 human pancreatic cancer cell line
Metric: IC50 (µM)
One number for each entry, in µM.

Example cases with answers are listed next.
Compound	Tgt	IC50 / µM
COC(=O)C[C@@H]1C[C@@]2(CO2)[C@H](O)[C@@H](/C=C/C(C)=C/C[C@@H]2O[C@H](C)[C@H](NC(=O)/C=C\C(C)c3cc(OC)no3)C[C@@H]2C)O1 (stereo partly shown) [Compound 5]	PANC 05.04	0.012
COC(=O)C[C@@H]1C[C@@]2(CO2)[C@H](O)[C@@H](/C=C/C(C)=C/C[C@@H]2O[C@H](C)[C@H](NC(=O)/C=C\C(C)OC(=O)c3ccccc3)C[C@@H]2C)O1 (stereo partly shown) [Compound 1]	PANC 05.04	0.022
COC(=O)C[C@@H]1C[C@@]2(CO2)[C@H](O)[C@@H](/C=C/C(C)=C/C[C@@H]2O[C@H](C)[C@H](NC(=O)/C=C\C(C)OC(=O)c3ccc(F)cc3)C[C@@H]2C)O1 (stereo partly shown) [Compound 2]	PANC 05.04	0.002
COC(=O)C[C@@H]1C[C@@]2(CO2)[C@H](O)[C@@H](/C=C/C(C)=C/C[C@@H]2O[C@H](C)[C@H](NC(=O)/C=C\C(C)c3ccon3)C[C@@H]2C)O1 (stereo partly shown) [Compound 4]	PANC 05.04	0.004

Give IC50 for all compounds that follow.
1. COC(=O)C[C@@H]1C[C@@]2(CO2)[C@H](O)[C@@H](/C=C/C(C)=C/C[C@@H]2O[C@H](C)[C@H](NC(=O)/C=C\C(C)n3nc(C)nc3C)C[C@@H]2C)O1 (stereo partly shown) [Compound 3]
2. COC(=O)C[C@@H]1C[C@@]2(CO2)[C@H](O)[C@@H](/C=C/C(C)=C/C[C@@H]2O[C@H](C)[C@H](NC(=O)/C=C\C(C)COC3(C)COC3)C[C@@H]2C)O1 (stereo partly shown) [Compound 7]
3. COC(=O)C[C@@H]1C[C@@]2(CO2)[C@H](O)[C@@H](/C=C/C(C)=C/C[C@@H]2O[C@H](C)[C@H](NC(=O)/C=C\C(C)c3noc(C)n3)C[C@@H]2C)O1 (stereo partly shown) [Compound 6]

Result:
[0.435, 0.022, 0.007]

* * *

Tested on: NCI-H23
Experimental Details: In vitro cytotoxicity of toxin compounds, CellTiter-Glo, three days (Example 12)
Assay type: cell-based
Study Conditions: Homo sapiens, 72 h
Protocol: Various cancer cell lines were obtained from the American Type Culture Collection (ATCC®). The cells were cultured in a humidified 5% CO2 incubator in a media consisting of RPMI 1640, L-glutamine, and 10% FBS. The cells were passaged as needed using standard tissue culture techniques. […] The Cell TiterGlo-containing plates were then read on a SpectroMax® iD3 Multi-Mode Microplate reader (Molecular Devices, LLC, San Jose, Calif.). The degree of luminescence was dictated by the abundance of live cells. […]
Metric: pIC50
One number for each entry, as −log10 of the molar value.

Illustrative cases are given below, each with its answer.
Molecule	Metric	Readout Number
COC(=O)C[C@@H]1C[C@@]2(CO2)[C@H](O)[C@@H](/C=C/C(C)=C/C[C@@H]2O[C@H](C)[C@H](NC(=O)/C=C\C(C)c3ccon3)C[C@@H]2C)O1 (stereo partly drawn)	pIC50	9.70
COC(=O)C[C@@H]1C[C@@]2(CO2)[C@H](O)[C@@H](/C=C/C(C)=C/C[C@@H]2O[C@H](C)[C@H](NC(=O)/C=C\C(C)c3noc(C)n3)C[C@@H]2C)O1 (stereo partly drawn)	pIC50	9.40

Reported pIC50 of COC(=O)C[C@@H]1C[C@@]2(CO2)[C@H](O)[C@@H](/C=C/C(C)=C/C[C@@H]2O[C@H](C)[C@H](NC(=O)/C=C\C(C)OC(=O)c3ccc(F)cc3)C[C@@H]2C)O1 (stereo partly drawn) : 8.89

Reference source for all entries: patent US10815246B2
